# System: Candida parapsilosis
# ASSAY_PROTOCOL: Antifungal activity against Candida parapsilosis ATCC 22019 cultured in YNB media after 72 hrs by broth microdilution method
# Assay type: functional
# EXPERIMENTAL_PARAMETERS: Lodderomyces parapsilosis, ATCC 22019, 72 h
METRIC: MIC (µg/mL)
Entry rule: numbers only, all in µg/mL.

Below are worked cases with known answers.
CCOc1ccccc1OS(=O)(=O)[N-]C(=O)Nc1nc(OC)cc(OC)n1.[Na+]: 2.5
C[C@@H]1[C@H](O)[C@@H](C)/C=C/C=C/C=C/C=C/C=C/C=C/C=C/[C@H](O[C@@H]2O[C@H](C)[C@@H](O)[C@H](N)[C@@H]2O)C[C@@H]2O[C@](O)(C[C@@H](O)C[C@@H](O)[C@H](O)CC[C@@H](O)C[C@@H](O)CC(=O)O[C@H]1C)C[C@H](O)[C@H]2C(=O)O: 2.5
CCOC(=O)c1ccccc1OS(=O)(=O)NC(=O)Nc1nc(OC)cc(OC)n1: 2.5
CCOC(=O)c1ccccc1OS(=O)(=O)[N-]C(=O)Nc1nc(OC)cc(OC)n1.[Na+]: 2.5
CCOc1ccccc1OS(=O)(=O)NC(=O)Nc1nc(OC)cc(OC)n1: 2.5

// below: MIC requested for another molecule
In one line, give reported MIC of the entry COc1cc(OC)nc(NC(=O)[N-]S(=O)(=O)Oc2ccccc2OCCI)n1.[Na+] .
20
